These measurements were taken from ChEMBL document CHEMBL1148732.

Listed here are molecules together with their documented Activity.
Molecular target: Adenosine receptor A2a (Homo sapiens)
Test: Displacement of [3H]NECA from human adenosine A2A receptor expressed in CHO cells at 10 uM
Type: cell-based
Number in %, nothing else.

In: Query (molecule): `Cc1ccc(-n2cc3c(n2)c(NC(=O)NCc2ccccc2)nc2ccccc23)cc1` ; field requested: Activity
Out: 39

In: Query (molecule): `Cc1ccc(-n2cc3c(n2)c(NC(=O)C(c2ccccc2)c2ccccc2)nc2ccccc23)cc1` ; field requested: Activity
Out: 3

In: Query (molecule): `O=C(Nc1nc2ccccc2c2cn(-c3ccccc3)nc12)c1ccccc1` ; field requested: Activity
Out: 9

In: Query (molecule): `O=C(Nc1nc2ccccc2c2cn(-c3ccccc3)nc12)C(c1ccccc1)c1ccccc1` ; field requested: Activity
Out: 21

In: Query (molecule): `COc1cccc(-n2cc3c(n2)c(=O)[nH]c2ccccc23)c1` ; field requested: Activity
Out: 52

In: Query (molecule): `Cc1ccc(-n2cc3c(n2)c(=O)[nH]c2ccccc23)cc1` ; field requested: Activity
Out: 44

In: Query (molecule): `Cc1ccc(-n2cc3c(n2)c(NC(=O)c2ccccc2)nc2ccccc23)cc1` ; field requested: Activity
Out: 26

====

Target: Adenosine receptor A1 (Homo sapiens)
Experiment: Displacement of [3H]DPCPX from human adenosine A1 receptor expressed in CHO cells at 10 uM
Type: cell-based
Listed here are molecules together with their documented Activity.
Number in %, nothing else.

Some molecules with known Activity results, for comparison:
COc1ccc(-n2cc3c(n2)c(NC(=O)NCc2ccccc2)nc2ccccc23)cc1 | 43
COc1ccc(-n2cc3c(n2)c(N(C(=O)c2ccccc2)C(=O)c2ccccc2)nc2ccccc23)cc1 | 25
O=c1[nH]c2ccccc2c2cn(Cc3ccccc3)nc12 | 8

In: Query (molecule): `Cc1cccc(-n2cc3c(n2)c(N(C(=O)c2ccccc2)C(=O)c2ccccc2)nc2ccccc23)c1` ; field requested: Activity
Out: 42

In: Query (molecule): `O=C(Cc1ccccc1)Nc1nc2ccccc2c2cn(-c3ccccc3)nc12` ; field requested: Activity
Out: 5

In: Query (molecule): `O=C(Nc1nc2ccccc2c2cn(-c3ccccc3)nc12)c1ccccc1` ; field requested: Activity
Out: 0

In: Query (molecule): `CC(=O)Nc1nc2ccccc2c2cn(-c3ccccc3)nc12` ; field requested: Activity
Out: 0

In: Query (molecule): `O=C(Nc1nc2ccccc2c2cn(-c3ccccc3)nc12)C(c1ccccc1)c1ccccc1` ; field requested: Activity
Out: 0

====

Target: Adenosine receptor A2a (Homo sapiens, UniProt P29274)
Sequence (P29274 whole entry): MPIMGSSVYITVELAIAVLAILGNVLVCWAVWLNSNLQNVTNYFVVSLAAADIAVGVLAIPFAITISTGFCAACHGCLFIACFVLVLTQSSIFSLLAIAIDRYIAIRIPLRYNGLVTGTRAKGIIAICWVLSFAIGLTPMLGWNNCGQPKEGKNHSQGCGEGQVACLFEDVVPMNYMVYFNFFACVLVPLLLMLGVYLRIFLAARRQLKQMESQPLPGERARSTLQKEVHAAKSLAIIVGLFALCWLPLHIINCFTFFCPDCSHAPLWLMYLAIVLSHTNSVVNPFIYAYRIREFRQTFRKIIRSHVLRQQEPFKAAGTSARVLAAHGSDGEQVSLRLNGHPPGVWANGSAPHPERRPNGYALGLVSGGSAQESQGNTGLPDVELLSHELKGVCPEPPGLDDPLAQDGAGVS
Listed here are molecules together with their documented Ki.

Cc1cccc(-n2cc3c(n2)c(N)nc2ccccc23)c1 | 228 nM
Cc1ccc(-n2cc3c(n2)c(N)nc2ccccc23)cc1 | 329 nM
Cc1cccc(-n2cc3c(n2)c(NC(=O)c2ccccc2)nc2ccccc23)c1 | 2860 nM

Now consider a different molecule.
In: Please tell me: Ki of `COc1cccc(-n2cc3c(n2)c(N)nc2ccccc23)c1` , system Adenosine receptor A2a (Homo sapiens, UniProt P29274)?
Out: 486 nM

====

Sequence of the target: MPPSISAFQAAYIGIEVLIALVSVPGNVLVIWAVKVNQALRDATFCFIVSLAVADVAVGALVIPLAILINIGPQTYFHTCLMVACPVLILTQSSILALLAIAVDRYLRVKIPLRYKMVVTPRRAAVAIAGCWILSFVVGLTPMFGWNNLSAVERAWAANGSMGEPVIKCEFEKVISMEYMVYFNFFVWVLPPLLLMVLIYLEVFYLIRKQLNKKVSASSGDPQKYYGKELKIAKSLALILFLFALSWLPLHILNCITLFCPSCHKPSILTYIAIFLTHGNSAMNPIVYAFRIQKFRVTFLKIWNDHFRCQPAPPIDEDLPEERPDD
property: pKi
Conceptually, pKi converts a concentration in mol/L into minus its log10.

O=c1[nH]c2ccccc2c2cn(-c3ccc([N+](=O)[O-])cc3)nc12 | 6.45

In: Query (compound): `Cc1ccc(-n2cc3c(n2)c(NC(=O)c2ccccc2)nc2ccccc23)cc1` ; field requested: pKi
Out: 6.20

In: Query (compound): `Cc1cccc(-n2cc3c(n2)c(=O)[nH]c2ccccc23)c1` ; field requested: pKi
Out: 7.92

In: Query (compound): `COc1ccc(-n2cc3c(n2)c(NC(=O)Cc2ccccc2)nc2ccccc23)cc1` ; field requested: pKi
Out: 6.70

====

Recorded below: pKi, system Adenosine receptor A3 (Homo sapiens).
Conceptually, pKi converts a concentration in mol/L into minus its log10.

COc1ccc(-n2cc3c(n2)c(NC(=O)Cc2ccccc2)nc2ccccc23)cc1 | 8.35
O=c1[nH]c2ccccc2c2cn(-c3ccc([N+](=O)[O-])cc3)nc12 | 7.07
CC(=O)Nc1nc2ccccc2c2cn(-c3cccc(C)c3)nc12 | 7.51
COc1ccc(-n2cc3c(n2)c(N(C(=O)c2ccccc2)C(=O)c2ccccc2)nc2ccccc23)cc1 | 7.76
COc1ccc(-n2cc3c(n2)c(NC(=O)c2ccccc2)nc2ccccc23)cc1 | 8.47

In: Query (compound): `COc1cccc(-n2cc3c(n2)c(=O)[nH]c2ccccc23)c1` ; field requested: pKi
Out: 8.14

In: Query (compound): `Cc1cccc(-n2cc3c(n2)c(NC(=O)NCc2ccccc2)nc2ccccc23)c1` ; field requested: pKi
Out: 8.47

In: Query (compound): `Cc1ccc(-n2cc3c(n2)c(NC(=O)c2ccccc2)nc2ccccc23)cc1` ; field requested: pKi
Out: 8.36

In: Query (compound): `Cc1ccc(-n2cc3c(n2)c(NC(=O)C(c2ccccc2)c2ccccc2)nc2ccccc23)cc1` ; field requested: pKi
Out: 7.94

In: Query (compound): `Cc1cccc(-n2cc3c(n2)c(N(C(=O)c2ccccc2)C(=O)c2ccccc2)nc2ccccc23)c1` ; field requested: pKi
Out: 7.63

In: Query (compound): `COc1ccc(-n2cc3c(n2)c(NC(=O)C(c2ccccc2)c2ccccc2)nc2ccccc23)cc1` ; field requested: pKi
Out: 8.05

====

Molecular target: Adenosine receptor A2a (Homo sapiens)
Test: Displacement of [3H]NECA from human adenosine A2A receptor expressed in CHO cells at 10 uM
Assay type: cell-based
Criterion met if Activity is below 20%. Criterion not met if not; exact matches included in Criterion not met.

COc1ccc(-n2cc3c(n2)c(=O)[nH]c2ccccc23)cc1 | Criterion not met
Cc1cccc(-n2cc3c(n2)c(=O)[nH]c2ccccc23)c1 | Criterion not met
Cc1ccc(-n2cc3c(n2)c(NC(=O)Cc2ccccc2)nc2ccccc23)cc1 | Criterion not met
O=c1[nH]c2ccccc2c2cn(Cc3ccccc3)nc12 | Criterion not met
O=C(Cc1ccccc1)Nc1nc2ccccc2c2cn(-c3ccccc3)nc12 | Criterion met
COc1ccc(-n2cc3c(n2)c(NC(=O)NCc2ccccc2)nc2ccccc23)cc1 | Criterion met

In: Quick check: does `Cc1cccc(-n2cc3c(n2)c(NC(=O)Cc2ccccc2)nc2ccccc23)c1` have Activity under 20%?
Out: Criterion not met

In: Quick check: does `O=c1[nH]c2ccccc2c2cn(-c3ccccc3)nc12` have Activity under 20%?
Out: Criterion not met

In: Quick check: does `CC(=O)Nc1nc2ccccc2c2cn(-c3ccccc3)nc12` have Activity under 20%?
Out: Criterion met

In: Quick check: does `Cc1cccc(-n2cc3c(n2)c(NC(=O)C(c2ccccc2)c2ccccc2)nc2ccccc23)c1` have Activity under 20%?
Out: Criterion met

In: Quick check: does `COc1ccc(-n2cc3c(n2)c(N(C(=O)c2ccccc2)C(=O)c2ccccc2)nc2ccccc23)cc1` have Activity under 20%?
Out: Criterion met

In: Quick check: does `COc1ccc(-n2cc3c(n2)c(NC(=O)C(c2ccccc2)c2ccccc2)nc2ccccc23)cc1` have Activity under 20%?
Out: Criterion met

In: Quick check: does `O=C(c1ccccc1)N(C(=O)c1ccccc1)c1nc2ccccc2c2cn(-c3ccccc3)nc12` have Activity under 20%?
Out: Criterion met

In: Quick check: does `COc1ccc(-n2cc3c(n2)c(NC(=O)Cc2ccccc2)nc2ccccc23)cc1` have Activity under 20%?
Out: Criterion not met

====

Target: Adenosine receptor A1 (Homo sapiens) (UniProt P30542)
Test: Displacement of [3H]DPCPX from human adenosine A1 receptor expressed in CHO cells at 10 uM
Type: cell-based
Y if Activity is below 30%. N if not; exact matches included in N.

Below are worked cases with known answers.
Cc1ccc(-n2cc3c(n2)c(N(C(=O)c2ccccc2)C(=O)c2ccccc2)nc2ccccc23)cc1 | N
O=C(c1ccccc1)N(C(=O)c1ccccc1)c1nc2ccccc2c2cn(-c3ccccc3)nc12 | Y
COc1ccc(-n2cc3c(n2)c(NC(=O)C(c2ccccc2)c2ccccc2)nc2ccccc23)cc1 | N
Cc1ccc(-n2cc3c(n2)c(NC(=O)NCc2ccccc2)nc2ccccc23)cc1 | Y
Cc1ccc(-n2cc3c(n2)c(NC(=O)C(c2ccccc2)c2ccccc2)nc2ccccc23)cc1 | N
Cc1ccc(-n2cc3c(n2)c(NC(=O)Cc2ccccc2)nc2ccccc23)cc1 | N

In: Quick check: does `O=C(NCc1ccccc1)Nc1nc2ccccc2c2cn(-c3ccccc3)nc12` have Activity under 30%?
Out: Y
